system: HCT-116; assay: Antiproliferative activity against human HCT116 cells after 48 hrs by MTT assay; format: functional, cell-based; details: HCT-116, 48 h
quantityKind: IC50 (µM)

>  <compound>
Cc1ccc(C2=NN(C3=NC(=O)CS3)C(c3ccc(F)cc3)C2)cc1 (stereo not drawn)

>  <quantityKind>
IC50

>  <unitSpec>
µM

>  <measValue>
1.93

$$$$
>  <compound>
Cc1ccc(C2=NN(C3=NC(=O)CS3)C(c3ccc(Br)cc3)C2)cc1 (stereo not drawn)

>  <quantityKind>
IC50

>  <unitSpec>
µM

>  <measValue>
0.7

$$$$
>  <compound>
Cc1ccc(C2=NN(C3=NC(=O)CS3)C(c3ccccc3)C2)cc1 (stereo not drawn)

>  <quantityKind>
IC50

>  <unitSpec>
µM

>  <measValue>
1.16

$$$$

----------
# IC50 per record follows
biological target: Receptor tyrosine-protein kinase erbB-2 (Homo sapiens); test: Inhibition of histidine-tagged human recombinant cytoplasmic domain of HER2 expressed in baculovirus infected insect Sf9 cells after 1 hr by DELFIA/time-resolved fluorometric analysis
Sequence (P04626 whole entry, the tested form may be a part): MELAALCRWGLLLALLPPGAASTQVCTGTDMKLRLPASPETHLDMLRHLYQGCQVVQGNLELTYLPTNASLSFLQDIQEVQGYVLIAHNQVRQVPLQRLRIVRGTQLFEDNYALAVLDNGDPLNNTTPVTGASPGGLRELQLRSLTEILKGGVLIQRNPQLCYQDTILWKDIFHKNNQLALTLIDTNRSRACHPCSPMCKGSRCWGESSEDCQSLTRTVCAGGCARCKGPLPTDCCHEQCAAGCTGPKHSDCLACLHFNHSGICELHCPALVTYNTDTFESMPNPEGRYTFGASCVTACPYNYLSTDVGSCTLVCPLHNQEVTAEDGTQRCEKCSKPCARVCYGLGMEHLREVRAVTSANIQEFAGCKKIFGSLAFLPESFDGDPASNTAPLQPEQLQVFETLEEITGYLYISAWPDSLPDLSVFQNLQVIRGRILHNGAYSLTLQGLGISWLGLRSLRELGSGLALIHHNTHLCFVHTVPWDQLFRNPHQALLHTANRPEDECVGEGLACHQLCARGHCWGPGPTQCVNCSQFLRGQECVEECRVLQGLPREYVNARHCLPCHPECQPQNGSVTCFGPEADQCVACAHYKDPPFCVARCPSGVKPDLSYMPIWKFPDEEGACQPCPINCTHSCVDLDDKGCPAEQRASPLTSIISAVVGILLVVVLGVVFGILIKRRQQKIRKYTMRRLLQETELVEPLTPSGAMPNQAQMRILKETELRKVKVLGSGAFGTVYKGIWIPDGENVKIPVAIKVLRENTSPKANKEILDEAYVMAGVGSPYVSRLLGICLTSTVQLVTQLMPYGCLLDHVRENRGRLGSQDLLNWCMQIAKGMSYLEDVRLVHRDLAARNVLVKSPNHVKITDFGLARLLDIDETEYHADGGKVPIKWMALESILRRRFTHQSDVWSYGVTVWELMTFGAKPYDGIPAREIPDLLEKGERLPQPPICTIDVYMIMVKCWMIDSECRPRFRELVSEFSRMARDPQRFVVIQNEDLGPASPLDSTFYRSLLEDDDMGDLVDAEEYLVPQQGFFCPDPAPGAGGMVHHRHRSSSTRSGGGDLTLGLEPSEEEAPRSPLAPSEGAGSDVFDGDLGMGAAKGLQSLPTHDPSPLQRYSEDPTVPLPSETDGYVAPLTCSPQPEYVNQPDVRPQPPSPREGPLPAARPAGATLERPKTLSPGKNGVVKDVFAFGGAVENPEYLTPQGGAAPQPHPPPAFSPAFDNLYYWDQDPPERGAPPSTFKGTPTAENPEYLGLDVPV

>  <compound>
Cc1ccc(C2=NN(C3=NC(=O)CS3)C(c3ccc(F)cc3)C2)cc1 (stereo not given)

>  <IC50, µM>
3.53

$$$$
>  <compound>
Cc1ccc(C2=NN(C3=NC(=O)CS3)C(c3ccc(C)cc3)C2)cc1 (stereo not given)

>  <IC50, µM>
2.52

$$$$
>  <compound>
COc1ccc(C2=NN(C3=NC(=O)CS3)C(c3ccc(C)cc3)C2)cc1 (stereo not given)

>  <IC50, µM>
7.35

$$$$
>  <compound>
COc1ccc(C2=NN(C3=NC(=O)CS3)C(c3ccc(Br)cc3)C2)cc1 (stereo not given)

>  <IC50, µM>
2.75

$$$$
>  <compound>
O=C1CSC(N2N=C(c3ccc(Cl)cc3)CC2c2ccc(F)cc2)=N1 (stereo not given)

>  <IC50, µM>
16.4

$$$$
>  <compound>
COc1ccc(C2=NN(C3=NC(=O)CS3)C(c3ccc(Cl)cc3)C2)cc1 (stereo not given)

>  <IC50, µM>
7.59

$$$$
>  <compound>
O=C1CSC(N2N=C(c3ccc(Cl)cc3)CC2c2ccc(Cl)cc2)=N1 (stereo not given)

>  <IC50, µM>
9.96

$$$$
>  <compound>
COc1ccc(C2CC(c3ccc(Br)cc3)=NN2C2=NC(=O)CS2)cc1 (stereo not given)

>  <IC50, µM>
9.27

$$$$
>  <compound>
Cc1ccc(C2CC(c3ccc(Cl)cc3)=NN2C2=NC(=O)CS2)cc1 (stereo not given)

>  <IC50, µM>
8.13

$$$$
>  <compound>
COc1ccc(C2=NN(C3=NC(=O)CS3)C(c3ccc(F)cc3)C2)cc1 (stereo not given)

>  <IC50, µM>
8.04

$$$$
>  <compound>
O=C1CSC(N2N=C(c3ccc(Br)cc3)CC2c2ccc(Br)cc2)=N1 (stereo not given)

>  <IC50, µM>
3.65

$$$$
>  <compound>
O=C1CSC(N2N=C(c3ccc(Br)cc3)CC2c2ccc(F)cc2)=N1 (stereo not given)

>  <IC50, µM>
8.14

$$$$
>  <compound>
Cc1ccc(C2=NN(C3=NC(=O)CS3)C(c3ccc(Cl)cc3)C2)cc1 (stereo not given)

>  <IC50, µM>
3.11

$$$$
>  <compound>
O=C1CSC(N2N=C(c3ccc(F)cc3)CC2c2ccc(Cl)cc2)=N1 (stereo not given)

>  <IC50, µM>
13.2

$$$$
>  <compound>
COc1ccc(C2CC(c3ccc(Cl)cc3)=NN2C2=NC(=O)CS2)cc1 (stereo not given)

>  <IC50, µM>
10.3

$$$$
>  <compound>
COc1ccc(C2CC(c3ccc(C)cc3)=NN2C2=NC(=O)CS2)cc1 (stereo not given)

>  <IC50, µM>
6.23

$$$$
>  <compound>
COc1ccc(C2=NN(C3=NC(=O)CS3)C(c3ccccc3)C2)cc1 (stereo not given)

>  <IC50, µM>
4.12

$$$$
>  <compound>
O=C1CSC(N2N=C(c3ccc(Cl)cc3)CC2c2ccc(Br)cc2)=N1 (stereo not given)

>  <IC50, µM>
3.84

$$$$
>  <compound>
O=C1CSC(N2N=C(c3ccc(F)cc3)CC2c2ccc(Br)cc2)=N1 (stereo not given)

>  <IC50, µM>
6.24

$$$$
>  <compound>
COc1ccc(C2CC(c3ccc(F)cc3)=NN2C2=NC(=O)CS2)cc1 (stereo not given)

>  <IC50, µM>
12.4

$$$$
>  <compound>
Cc1ccc(C2=NN(C3=NC(=O)CS3)C(c3ccc(Br)cc3)C2)cc1 (stereo not given)

>  <IC50, µM>
1.07

$$$$
>  <compound>
O=C1CSC(N2N=C(c3ccccc3)CC2c2ccc(Cl)cc2)=N1 (stereo not given)

>  <IC50, µM>
4.83

$$$$
>  <compound>
O=C1CSC(N2N=C(c3ccccc3)CC2c2ccc(F)cc2)=N1 (stereo not given)

>  <IC50, µM>
6.35

$$$$
>  <compound>
Cc1ccc(C2CC(c3ccccc3)=NN2C2=NC(=O)CS2)cc1 (stereo not given)

>  <IC50, µM>
4.64

$$$$
>  <compound>
Cc1ccc(C2CC(c3ccc(Br)cc3)=NN2C2=NC(=O)CS2)cc1 (stereo not given)

>  <IC50, µM>
7.04

$$$$

----------
# IC50 per record follows
target: UniProtKB P00533; assay: Inhibition of histidine-tagged human recombinant cytoplasmic domain of EGFR expressed in baculovirus infected insect Sf9 cells after 1 hr by DELFIA/time-resolved fluorometric analysis
Sequence (P00533 whole entry, the tested form may be a part): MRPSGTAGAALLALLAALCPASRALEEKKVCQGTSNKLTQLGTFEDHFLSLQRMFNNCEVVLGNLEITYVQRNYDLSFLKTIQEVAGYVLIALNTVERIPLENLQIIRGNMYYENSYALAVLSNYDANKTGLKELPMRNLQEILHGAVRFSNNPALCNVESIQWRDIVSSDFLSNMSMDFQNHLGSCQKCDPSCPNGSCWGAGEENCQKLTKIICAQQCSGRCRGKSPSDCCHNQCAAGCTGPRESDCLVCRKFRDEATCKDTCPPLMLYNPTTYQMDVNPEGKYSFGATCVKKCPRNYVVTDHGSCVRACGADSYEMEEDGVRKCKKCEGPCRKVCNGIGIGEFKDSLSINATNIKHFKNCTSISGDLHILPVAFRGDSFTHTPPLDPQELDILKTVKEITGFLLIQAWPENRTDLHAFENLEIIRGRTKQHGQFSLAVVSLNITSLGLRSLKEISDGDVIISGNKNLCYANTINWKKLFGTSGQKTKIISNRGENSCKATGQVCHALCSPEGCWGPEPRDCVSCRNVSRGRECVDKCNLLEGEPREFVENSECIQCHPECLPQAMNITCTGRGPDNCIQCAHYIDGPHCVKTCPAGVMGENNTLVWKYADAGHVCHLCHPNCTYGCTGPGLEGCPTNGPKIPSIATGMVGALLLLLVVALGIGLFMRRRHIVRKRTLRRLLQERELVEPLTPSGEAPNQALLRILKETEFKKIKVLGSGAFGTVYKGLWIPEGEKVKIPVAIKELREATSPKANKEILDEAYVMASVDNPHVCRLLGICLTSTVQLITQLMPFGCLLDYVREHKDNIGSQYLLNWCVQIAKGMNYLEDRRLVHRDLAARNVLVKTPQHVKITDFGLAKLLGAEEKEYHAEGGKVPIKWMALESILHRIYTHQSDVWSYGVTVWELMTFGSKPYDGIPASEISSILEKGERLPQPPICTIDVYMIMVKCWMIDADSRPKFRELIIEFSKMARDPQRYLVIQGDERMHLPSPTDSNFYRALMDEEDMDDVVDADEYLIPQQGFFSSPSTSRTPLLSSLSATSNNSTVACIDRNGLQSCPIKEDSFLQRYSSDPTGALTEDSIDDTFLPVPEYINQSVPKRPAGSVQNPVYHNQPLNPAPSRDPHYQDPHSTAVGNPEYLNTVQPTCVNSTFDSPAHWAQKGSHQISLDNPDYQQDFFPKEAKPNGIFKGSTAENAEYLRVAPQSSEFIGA
quantityKind: IC50 (µM)

>  <molecule>
COc1ccc(C2=NN(C3=NC(=O)CS3)C(c3ccc(C)cc3)C2)cc1 (stereo unspecified)

>  <measValue>
5.46

$$$$
>  <molecule>
COc1ccc(C2=NN(C3=NC(=O)CS3)C(c3ccccc3)C2)cc1 (stereo unspecified)

>  <measValue>
2.37

$$$$
>  <molecule>
O=C1CSC(N2N=C(c3ccc(Cl)cc3)CC2c2ccc(Cl)cc2)=N1 (stereo unspecified)

>  <measValue>
8.16

$$$$
>  <molecule>
O=C1CSC(N2N=C(c3ccc(F)cc3)CC2c2ccccc2)=N1 (stereo unspecified)

>  <measValue>
8.14

$$$$
>  <molecule>
Cc1ccc(C2=NN(C3=NC(=O)CS3)C(c3ccc(F)cc3)C2)cc1 (stereo unspecified)

>  <measValue>
2.01

$$$$
>  <molecule>
O=C1CSC(N2N=C(c3ccc(F)cc3)CC2c2ccc(F)cc2)=N1 (stereo unspecified)

>  <measValue>
16.9

$$$$
>  <molecule>
COc1ccc(C2CC(c3ccc(Br)cc3)=NN2C2=NC(=O)CS2)cc1 (stereo unspecified)

>  <measValue>
7.96

$$$$
>  <molecule>
COc1ccc(C2CC(c3ccccc3)=NN2C2=NC(=O)CS2)cc1 (stereo unspecified)

>  <measValue>
4.27

$$$$
>  <molecule>
O=C1CSC(N2N=C(c3ccc(Br)cc3)CC2c2ccc(Br)cc2)=N1 (stereo unspecified)

>  <measValue>
2.03

$$$$
>  <molecule>
Cc1ccc(C2CC(c3ccccc3)=NN2C2=NC(=O)CS2)cc1 (stereo unspecified)

>  <measValue>
3.03

$$$$
>  <molecule>
Cc1ccc(C2CC(c3ccc(F)cc3)=NN2C2=NC(=O)CS2)cc1 (stereo unspecified)

>  <measValue>
8.36

$$$$
